# Assay summary: in vitro
# Recorded conditions: human, hela cells, % viability
Reported metric: viability at 28.5 h, 10 µM (%)
Please reply with the bare figure in % and do not write the unit itself.

Known results for molecules:
CC(=O)N1CCC(C(=O)Nc2cnc(-c3ccc(F)cc3)c(-c3ccco3)n2)CC1 | 104
Cc1cccc(C)c1NC(=O)Cn1nnc(-c2ccc(CN3CCC(C)CC3)cc2)n1 | 87.2
CCN(C(=O)Nc1cccnc1Oc1ccc(F)cc1)C1CCOCC1 | 89.5
CCOC(=O)c1cnc2c(C)c(Cl)ccc2c1NCCCN1CCOCC1 | 99.6
CN1CCN(C(=O)c2ccc3nc(-c4ccccc4)c(-c4ccccc4)nc3c2)CC1 | 98.7

# input for lookup
Item `Cc1ccc2nc(NCC(=O)O)nc(-c3ccccc3)c2c1` has what recorded viability at 28.5 h, 10 µM? 84.4
